Measured values drawn from PubChem BioAssay for this set.

experiment: endothelial E-selectin expression blockers – imaging, HUVEC, immunofluorescence, MLSMR starter and 10KST1 sets, primary screen (AID 487); settings: HUVEC TNFalpha-induced E-selectin immunofluorescence imaging, at 2 µM; measured here: cell number, toxicity;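 note: 100% = median nuclei count of all wells on the same plate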
Could you please report measured nuclei count for the items listed next?
Give just the numeric value; % need not be written.

Task: # nuclei count lookup, item O=S(=O)(NCC1CCCO1)c1cccc(C(F)(F)F)c1 (stereo not drawn)
Output: 159

Task: # nuclei count lookup, item "COC(=O)Nc1sccc1C(=O)Nc1sccc1C(=O)OC"
Output: 95.9

Task: # nuclei count lookup, item "CCOC(=O)CSc1nc2sc(C)c(C)c2c(=O)[nH]1"
Output: 102

Task: # nuclei count lookup, item "Cn1c(N2CCC(C(N)=O)CC2)nc2c1c(=O)n(Cc1ccc(Br)cc1)c(=O)n2C"
Output: 95.1

Task: # nuclei count lookup, item COc1ccc(CN2C(=O)c3cccnc3C2Nc2cc(Cl)ccc2OC)cc1 (stereo not drawn)
Output: 112

Task: # nuclei count lookup, item Cc1nn(Cc2ccccc2Cl)c(C)c1NC(=O)C1C2CCC(O2)C1C(=O)O (stereo not drawn)
Output: 96.3

Task: # nuclei count lookup, item "COC(=O)c1ccc(COC(=O)c2c(C)nn(Cc3ccccc3Cl)c2Cl)o1"
Output: 70.3

Task: # nuclei count lookup, item "CCOC(=O)Cn1nnnc1CN(Cc1ccc(OC)cc1)Cc1cc2cc(C)ccc2[nH]c1=O"
Output: 135

Task: # nuclei count lookup, item "FC(F)(F)c1nnc2ccc(NCn3nnc4ccccc43)nn12"
Output: 94.1

Task: # nuclei count lookup, item COc1cccc(CN2C(=O)C3(C(C#N)=C(N)OC4=C3C(=O)CCC4)c3ccccc32)c1 (stereo not drawn)
Output: 77.7

Task: # nuclei count lookup, item Cc1ccc(OC(=O)NC2CCS(=O)(=O)C2)cc1C (stereo not drawn)
Output: 116

Task: # nuclei count lookup, item "CCN(C(=O)c1cccs1)c1nnc(-c2ccncc2)s1"
Output: 115

Task: # nuclei count lookup, item "CCS(=O)(=O)c1nc2ccccc2n1CC(=O)N1CCCCC1"
Output: 99.3

Task: # nuclei count lookup, item "Cc1ccc(C)c(CSc2nnc(CCN)o2)c1"
Output: 103

Task: # nuclei count lookup, item COCCNC(=O)C(c1cccs1)N(C(=O)Cn1nnc2ccccc21)c1ccccc1 (stereo not drawn)
Output: 93.8

Task: # nuclei count lookup, item "O=C(Nc1ccc2c(c1)OCO2)c1cccc(Cl)c1"
Output: 114

Task: # nuclei count lookup, item "COCCOC(=O)c1cc(C(=O)c2cc(F)ccc2O)coc1=N"
Output: 115

Task: # nuclei count lookup, item "CCOC(=O)c1c(C)oc2ccc(OCC(=O)N(CC)CC)cc12"
Output: 104

Task: # nuclei count lookup, item "CCOc1cc(C)c(C(C)C)cc1S(=O)(=O)N1CCN(C)CC1"
Output: 112

Task: # nuclei count lookup, item "COc1ccc(N2C(=O)C(Cl)=C(Nc3c(C)n(C)n(-c4ccccc4)c3=O)C2=O)cc1"
Output: 102

Task: # nuclei count lookup, item "Cn1c(SCC(=O)c2ccc(-c3ccccc3)cc2)nnc1-c1ccco1"
Output: 118

Task: # nuclei count lookup, item "Oc1ccc(C=Nc2cccc3ncccc23)c(O)c1"
Output: 118

Task: # nuclei count lookup, item "CCC(=O)N1CCN(CCN=CC2=C(O)CC(C)(C)CC2=O)CC1"
Output: 111
